Assay: Maximal concentration in rats after peroral administration
Assay type: ADME, organism-based
Set-up: route oral
Conditions: rat, in vivo, po
experimental readout: Cmax (nM)

I. COc1cccc(CNc2ccc(N3CCN(c4cccc(C(F)(F)F)c4)CC3)c(C(F)(F)F)c2)c1Oc1ccc([N+](=O)[O-])cc1C(=O)O
II. CC(C)[C@@H]1CC[C@@H](C)C[C@H]1OCC(=O)Nc1cc(Oc2ccc(C(=O)O)cc2)ccc1[N+](=O)[O-]
Exercise: Form: Entry with minimum Cmax (choose one): I / II Selection: enter the item's label.
Key: II

----------
Test: […] of compound in rats after peroral administration
Format: ADME, organism-based
Conditions: rat, in vivo, po
experimental readout: Tmax (h)

COc1cccc(CNc2ccc(N3CCN(c4cccc(C(F)(F)F)c4)CC3)c(C(F)(F)F)c2)c1Oc1ccc([N+](=O)[O-])cc1C(=O)O
3
CC(C)[C@@H]1CC[C@@H](C)C[C@H]1OCC(=O)Nc1cc(Oc2ccc(C(=O)O)cc2)ccc1[N+](=O)[O-]
3

----------
Biological target: Plasminogen activator inhibitor 1 (Homo sapiens)
Sequence (P05121 whole entry): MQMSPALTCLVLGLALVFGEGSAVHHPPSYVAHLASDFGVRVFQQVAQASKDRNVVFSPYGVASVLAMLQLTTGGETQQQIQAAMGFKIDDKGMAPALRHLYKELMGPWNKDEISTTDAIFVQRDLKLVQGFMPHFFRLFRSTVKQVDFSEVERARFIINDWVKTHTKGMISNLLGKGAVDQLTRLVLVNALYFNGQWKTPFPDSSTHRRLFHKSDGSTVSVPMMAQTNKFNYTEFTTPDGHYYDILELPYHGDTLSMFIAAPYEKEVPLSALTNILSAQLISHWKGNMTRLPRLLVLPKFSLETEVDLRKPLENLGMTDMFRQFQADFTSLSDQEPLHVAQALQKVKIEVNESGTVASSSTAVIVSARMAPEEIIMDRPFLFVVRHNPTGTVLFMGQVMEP
experimental readout: IC50 (nM)

COc1cccc(CNc2ccc(N3CCN(c4cccc(C(F)(F)F)c4)CC3)c(C(F)(F)F)c2)c1Oc1c(C(=O)O)cc(Cl)cc1[N+](=O)[O-]
900
O=C(O)c1ccc(Oc2cc(N3CCN(c4cccc(C(F)(F)F)c4)CC3)c([N+](=O)[O-])cc2C(F)(F)F)cc1
2100

1. O=C(O)C1CCCN1c1c([N+](=O)[O-])ccc(F)c1CNc1ccc(N2CCN(c3cccc(C(F)(F)F)c3)CC2)c(C(F)(F)F)c1 (stereo not given)
2. O=C(O)C1CCN(c2cc(N3CCN(c4cccc(C(F)(F)F)c4)CC3)c([N+](=O)[O-])cc2C(F)(F)F)CC1
Exercise: Return label of the item with the larger IC50. Candidates: 1 , 2 . Selection: enter the item's label.
Key: 1
